B1: library; numbered along this chain (parent)
chain: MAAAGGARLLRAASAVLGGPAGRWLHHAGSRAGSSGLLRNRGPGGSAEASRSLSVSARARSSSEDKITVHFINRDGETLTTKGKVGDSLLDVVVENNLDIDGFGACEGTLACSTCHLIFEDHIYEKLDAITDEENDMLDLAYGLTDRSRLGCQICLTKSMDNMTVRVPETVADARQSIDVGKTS

variants of: B1; experiment: scaled log2 fold change in cell abundance, elesclomol vs control (0 = silent mean, 1 = nonsense mean) (scaled log2 ratio); higher = higher viability under elesclomol (loss of FDX1 cuproptosis function); conditions: with ABC1 FDX1 KO; elesclomol 5 nM; glucose 10 mM; 14 days;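 also: variant abundance is its share of total variant reads in each endpoint sample, from next-generation sequencing of the integrated ORF PCR-amplified out of genomic DNA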
measurementName: scaled log2 fold change
Form field (numeric): enter value without unit.

(Q) Tell me scaled log2 fold change reported for `A174K`
(A) -0.0242

(Q) Tell me scaled log2 fold change reported for `P43A`
(A) -0.0498

(Q) Tell me scaled log2 fold change reported for `S56L`
(A) 0.557

(Q) Tell me scaled log2 fold change reported for `W24H`
(A) 0.42

(Q) Tell me scaled log2 fold change reported for `S148F`
(A) 0.404

(Q) Tell me scaled log2 fold change reported for `G143F`
(A) -0.335

(Q) Tell me scaled log2 fold change reported for `E120N`
(A) 0.109

(Q) Tell me scaled log2 fold change reported for `I100V`
(A) -0.852

(Q) Tell me scaled log2 fold change reported for `S63A`
(A) 0.227

(Q) Tell me scaled log2 fold change reported for `P20D`
(A) -0.0903

(Q) Tell me scaled log2 fold change reported for `E169D`
(A) -0.464

(Q) Tell me scaled log2 fold change reported for `R74L`
(A) 0.361

(Q) Tell me scaled log2 fold change reported for `E107C`
(A) 0.0589

(Q) Tell me scaled log2 fold change reported for `F71H`
(A) 1.22

Attribution: the supplement of paper PMC12855868
